Below is a list of entries, each paired with its recorded pKi value.
- TEST TARGET: UniProt:P23316
- ASSAY PROCEDURE: Compound was tested for the inhibitory activity against chitin synthetase
pKi: −log10 of the molar value.
MEASURE NAME: pKi

COMPOUND: CCCCCCCC(=O)NC(Cc1ccccc1)C(=O)NC(C(=O)NC(C(=O)O)[C@H]1O[C@@H](n2cc(C(=O)O)c(=O)[nH]c2=O)[C@H](O)[C@@H]1O)C(O)C(O)COC(N)=O (stereo partly drawn)
OBS VALUE: 5.15

COMPOUND: CCCNC(CC(C)C)C(=O)NC(C(=O)O)[C@H]1O[C@@H](n2ccc(=O)[nH]c2=O)[C@H](O)[C@@H]1O (stereo partly drawn)
OBS VALUE: 3.84

COMPOUND: NC(Cc1ccccc1)C(=O)N/C(=C/c1ccccc1)C(=O)NC(C(=O)O)[C@H]1O[C@@H](n2ccc(=O)[nH]c2=O)[C@H](O)[C@@H]1O (stereo partly drawn)
OBS VALUE: 4.95

* * *

- TEST TARGET: Chitin synthase 1 (Candida albicans) (UniProt P23316)
- Sequence (P23316 whole entry, looked up): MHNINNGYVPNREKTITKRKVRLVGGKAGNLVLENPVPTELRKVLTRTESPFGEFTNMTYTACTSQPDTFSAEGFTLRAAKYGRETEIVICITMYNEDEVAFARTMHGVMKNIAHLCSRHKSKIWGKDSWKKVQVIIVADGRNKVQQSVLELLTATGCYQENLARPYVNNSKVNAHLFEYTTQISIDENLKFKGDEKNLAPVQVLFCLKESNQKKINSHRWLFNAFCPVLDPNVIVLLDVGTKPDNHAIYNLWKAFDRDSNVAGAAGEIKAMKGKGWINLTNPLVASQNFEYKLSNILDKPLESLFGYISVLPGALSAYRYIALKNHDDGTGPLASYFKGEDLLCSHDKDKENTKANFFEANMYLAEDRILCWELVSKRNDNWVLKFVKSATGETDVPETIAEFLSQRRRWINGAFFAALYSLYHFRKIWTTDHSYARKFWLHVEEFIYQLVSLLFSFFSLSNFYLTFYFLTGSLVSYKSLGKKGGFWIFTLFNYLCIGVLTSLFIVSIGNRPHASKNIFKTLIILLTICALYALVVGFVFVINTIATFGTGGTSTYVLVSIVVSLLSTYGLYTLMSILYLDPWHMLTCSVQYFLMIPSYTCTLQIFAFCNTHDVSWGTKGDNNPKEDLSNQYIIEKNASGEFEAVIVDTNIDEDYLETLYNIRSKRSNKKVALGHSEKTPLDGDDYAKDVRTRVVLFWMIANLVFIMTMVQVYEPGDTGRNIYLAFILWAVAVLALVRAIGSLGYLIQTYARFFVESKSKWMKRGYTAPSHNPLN
- ASSAY PROCEDURE: Compound was tested for the inhibitory activity against chitin synthetase in the mixed membrane preparation from Candida albicans
- Type: cell membranes
Below is a list of entries, each paired with its recorded ID50 value.
MEASURE NAME: ID50 (µM)

COMPOUND: CCCNC(CC(C)C)C(=O)NC(C(=O)O)[C@H]1O[C@@H](n2ccc(=O)[nH]c2=O)[C@H](O)[C@@H]1O (some centres not stated)
UNIT LABEL: µM
RESULT COMPARATOR: >
OBS VALUE: 100
--
COMPOUND: NC(Cc1ccccc1)C(=O)N/C(=C/c1ccccc1)C(=O)NC(C(=O)O)[C@H]1O[C@@H](n2ccc(=O)[nH]c2=O)[C@H](O)[C@@H]1O (some centres not stated)
UNIT LABEL: µM
RESULT COMPARATOR: =
OBS VALUE: 40
--
COMPOUND: CCCCCCCC(=O)NC(Cc1ccccc1)C(=O)NC(C(=O)NC(C(=O)O)[C@H]1O[C@@H](n2cc(C(=O)O)c(=O)[nH]c2=O)[C@H](O)[C@@H]1O)C(O)C(O)COC(N)=O (some centres not stated)
UNIT LABEL: µM
RESULT COMPARATOR: =
OBS VALUE: 47.5
--
COMPOUND: N[C@@H](Cc1c[nH]c2ccccc12)C(=O)NC(C(=O)O)[C@H]1O[C@@H](n2ccc(=O)[nH]c2=O)[C@H](O)[C@@H]1O (some centres not stated)
UNIT LABEL: µM
RESULT COMPARATOR: >
OBS VALUE: 100
--
COMPOUND: CCCCC(NC)C(=O)NC(C(=O)O)[C@H]1O[C@@H](n2ccc(=O)[nH]c2=O)[C@H](O)[C@@H]1O (some centres not stated)
UNIT LABEL: µM
RESULT COMPARATOR: =
OBS VALUE: 120
--
COMPOUND: CCCCC(N)C(=O)NC(C(N)=O)[C@H]1O[C@@H](n2ccc(=O)[nH]c2=O)[C@H](O)[C@@H]1O (some centres not stated)
UNIT LABEL: µM
RESULT COMPARATOR: =
OBS VALUE: 200
--
COMPOUND: NOC(Cc1ccccc1)C(=O)NC(C(=O)O)[C@H]1O[C@@H](n2ccc(=O)[nH]c2=O)[C@H](O)[C@@H]1O (some centres not stated)
UNIT LABEL: µM
RESULT COMPARATOR: =
OBS VALUE: 100
